- System: KRAS PDC tumor spheroids (HUVEC+MSC), viability
- protocol-description: Anticancer human tumor 254851-301-R-J1-PDC patient-derived colon carcinoma cell line growth inhibition [KRAS2]
- measurement-setup: compound 1 µM; stronger effect = lower value
Readings of viability, T/C for the listed compounds

compound: Cn1nccc1Nc1nccc(-c2cc3c(s2)C(C)(C)N(CCN2CCOCC2)C3=O)n1
viability, T/C: 89.6% [middle of 5 runs]

For `COc1cc(Nc2ncc3c(n2)-c2ccc(Cl)cc2C(c2c(F)cccc2OC)=NC3)ccc1C(=O)O` , what is its reported viability, T/C?
28.5% [middle of 5 runs]

For CCNC(=O)CC1N=C(c2ccc(Cl)cc2)c2cc(OC)ccc2-n2c(C)nnc21 (stereo not drawn) , what is its reported viability, T/C?
88.9% [middle of 5 runs]

For `COc1cc2nccc(Oc3ccc(NC(=O)C4(C(=O)Nc5ccc(F)cc5)CC4)cc3)c2cc1OC` , what is its reported viability, T/C?
106% [middle of 5 runs]

For CC1COCCN1c1cc(-c2ccnn2C)c2ccnc(-c3ccn[nH]3)c2n1 (stereo not drawn) , what is its reported viability, T/C?
38.6% [middle of 5 runs]

For CC(C)NCC(C(=O)N1CCN(c2ncnc3c2C(C)CC3O)CC1)c1ccc(Cl)cc1 (stereo not drawn) , what is its reported viability, T/C?
104% [middle of 5 runs]

For `CC1(C)CCC(CN2CCN(c3ccc(C(=O)NS(=O)(=O)c4ccc(NCC5CCOCC5)c([N+](=O)[O-])c4)c(Oc4cnc5[nH]ccc5c4)c3)CC2)=C(c2ccc(Cl)cc2)C1` , what is its reported viability, T/C?
102% [middle of 5 runs]

For `CCN1CCN(Cc2ccc(Nc3ncc(F)c(-c4cc(F)c5nc(C)n(C(C)C)c5c4)n3)nc2)CC1` , what is its reported viability, T/C?
42% [middle of 5 runs]

For COc1cc2nc(C)nc(NC(C)c3cc(N)cc(C(F)(F)F)c3)c2cc1OC1CCOC1 (stereo not drawn) , what is its reported viability, T/C?
92.5% [middle of 17 runs]

For CC1OCC2(CCN(c3cnc(Sc4ccnc(N)c4Cl)c(N)n3)CC2)C1N (stereo not drawn) , what is its reported viability, T/C?
82.1% [middle of 19 runs]

For `O=C(c1cc(Cc2n[nH]c(=O)c3ccccc23)ccc1F)N1CCN(C(=O)C2CC2)CC1` , what is its reported viability, T/C?
99.5% [middle of 5 runs]

For CC(=O)OC12COC1CC(O)C1(C)C(=O)C(O)C3=C(C)C(OC(=O)C(O)C(NC(=O)OC(C)(C)C)c4ccccc4)CC(O)(C(OC(=O)c4ccccc4)C21)C3(C)C (stereo not drawn) , what is its reported viability, T/C?
28.1% [middle of 5 runs]

For `COC(=O)c1ccc2c(C(=Nc3ccc(N(C)C(=O)CN4CCN(C)CC4)cc3)c3ccccc3)c(O)[nH]c2c1` , what is its reported viability, T/C?
97.2% [middle of 5 runs]

###

- System: KRAS PDC tumor spheroids (HUVEC+MSC), viability
- protocol-description: Anticancer human tumor 254851-301-R-J1-PDC cell line growth inhibition [KRAS2];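 further: spheroids exposed to compounds for seven days before readout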
- measurement-setup: curve of first compound; second compound 1 µM
Readings of IC50 for the listed molecules

For orientation, consider the following solved cases.
molecule: Cn1nccc1Nc1nccc(-c2cc3c(s2)C(C)(C)N(CCN2CCOCC2)C3=O)n1 + CC1OCC2(CCN(c3cnc(Sc4ccnc(N)c4Cl)c(N)n3)CC2)C1N
result: 1290 nM
--
molecule: CCN1CCN(Cc2ccc(Nc3ncc(F)c(-c4cc(F)c5nc(C)n(C(C)C)c5c4)n3)nc2)CC1 + C=CC(=O)N1CCN(c2nc(=O)n(-c3c(C)ccnc3C(C)C)c3nc(-c4c(O)cccc4F)c(F)cc23)C(C)C1
result: > 1000 nM

For CC(C)NCC(C(=O)N1CCN(c2ncnc3c2C(C)CC3O)CC1)c1ccc(Cl)cc1 (stereo not given) + CNCc1ccccc1-c1csc(C(C)Nc2nc(C)nc3cc(OC)c(OC)cc23)c1 , what is its reported IC50?
> 10000 nM

For CC1(C)CCC(CN2CCN(c3ccc(C(=O)NS(=O)(=O)c4ccc(NCC5CCOCC5)c([N+](=O)[O-])c4)c(Oc4cnc5[nH]ccc5c4)c3)CC2)=C(c2ccc(Cl)cc2)C1 + COc1cc2nc(C)nc(NC(C)c3cc(N)cc(C(F)(F)F)c3)c2cc1OC1CCOC1 , what is its reported IC50?
> 10000 nM

For CC(=O)OC12COC1CC(O)C1(C)C(=O)C(O)C3=C(C)C(OC(=O)C(O)C(NC(=O)OC(C)(C)C)c4ccccc4)CC(O)(C(OC(=O)c4ccccc4)C21)C3(C)C (stereo not given) + CNCc1ccccc1-c1csc(C(C)Nc2nc(C)nc3cc(OC)c(OC)cc23)c1 , what is its reported IC50?
184 nM
